From: patent US20220185900A1

- system_under_test: T1, Macaca fascicularis (mf) RET.mmh (Macaca fascicularis)
- T1 construct: also called monkey RET
- T1 chain: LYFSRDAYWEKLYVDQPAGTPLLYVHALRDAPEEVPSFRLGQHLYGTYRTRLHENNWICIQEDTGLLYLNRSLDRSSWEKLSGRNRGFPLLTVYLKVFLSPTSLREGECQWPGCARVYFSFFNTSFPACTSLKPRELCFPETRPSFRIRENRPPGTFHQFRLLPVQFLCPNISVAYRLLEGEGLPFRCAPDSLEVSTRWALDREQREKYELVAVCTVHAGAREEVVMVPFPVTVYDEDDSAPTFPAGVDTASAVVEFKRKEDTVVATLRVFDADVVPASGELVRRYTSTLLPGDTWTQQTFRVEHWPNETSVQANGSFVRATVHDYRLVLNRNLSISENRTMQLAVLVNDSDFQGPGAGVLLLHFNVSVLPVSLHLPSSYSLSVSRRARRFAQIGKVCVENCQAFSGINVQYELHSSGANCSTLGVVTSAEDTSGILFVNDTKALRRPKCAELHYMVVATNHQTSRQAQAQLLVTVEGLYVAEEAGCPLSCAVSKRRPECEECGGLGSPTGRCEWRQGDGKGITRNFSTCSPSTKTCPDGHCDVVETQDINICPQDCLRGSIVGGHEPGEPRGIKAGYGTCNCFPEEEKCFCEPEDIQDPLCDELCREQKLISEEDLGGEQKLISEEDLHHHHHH
- method: SPR Biacore T200, mAb capture, 25 C
quantity_measured: kon
Enter the number, and then the unit.

H4H8066P (antibody, human IgG4, V domains shown, human IgG4 Fc (H4H prefix)) VH: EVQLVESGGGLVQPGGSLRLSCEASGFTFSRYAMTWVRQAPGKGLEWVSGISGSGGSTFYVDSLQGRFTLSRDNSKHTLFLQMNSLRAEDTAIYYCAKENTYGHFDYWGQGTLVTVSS VL: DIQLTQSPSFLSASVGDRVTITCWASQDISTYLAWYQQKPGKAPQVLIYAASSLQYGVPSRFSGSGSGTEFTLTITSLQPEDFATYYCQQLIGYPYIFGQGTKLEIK; 64300 M⁻¹ s⁻¹
H4H8045P (antibody, human IgG4, V domains shown, human IgG4 Fc (H4H prefix)) VH: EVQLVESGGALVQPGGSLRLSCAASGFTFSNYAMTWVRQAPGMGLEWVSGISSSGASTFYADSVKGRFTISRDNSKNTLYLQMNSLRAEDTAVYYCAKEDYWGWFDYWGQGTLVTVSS VL: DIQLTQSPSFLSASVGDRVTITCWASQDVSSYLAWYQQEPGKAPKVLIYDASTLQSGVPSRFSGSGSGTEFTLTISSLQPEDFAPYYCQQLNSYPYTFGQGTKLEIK; 192000 M⁻¹ s⁻¹

Report kon for H4H8084P (antibody, human IgG4, V domains shown, human IgG4 Fc (H4H prefix)) VH: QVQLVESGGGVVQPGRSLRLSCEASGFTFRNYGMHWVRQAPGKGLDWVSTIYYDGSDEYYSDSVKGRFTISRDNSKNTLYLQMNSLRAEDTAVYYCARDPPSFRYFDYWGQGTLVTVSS VL: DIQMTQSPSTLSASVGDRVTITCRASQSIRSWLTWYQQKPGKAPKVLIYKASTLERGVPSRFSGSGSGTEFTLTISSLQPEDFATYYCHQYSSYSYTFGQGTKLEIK please. 695000 M⁻¹ s⁻¹
